Values compiled from paper PMC10017027.

Test: Solubility assessment, shake-flask method
Assay type: physicochemical
Settings: phosphate-buffered saline; shake-flask, pH 7.4; read-out: solubility PBS
So I've got a bunch of compounds here, and I need their solubility values.
Numbers only, in µM.

Cc1cc(C#N)cc(C)c1N1CCC(=O)Nc2cnc(Nc3ccc(C#N)cc3)nc21 :: 1.4
Cc1cc(/C=C/C#N)cc(C)c1-n1c(=O)[nH]c2cnc(Nc3ccc(C#N)cc3)nc21 :: 10.4

Can you give me solubility for all of these, one by one?
1. Cc1cc(C#N)cc(C)c1N1CC(=O)Nc2cnc(Nc3ccc(C#N)cc3)nc21
2. Cc1cc(C#N)cc(C)c1-n1c(=O)[nH]c2cnc(Nc3ccc(C#N)cc3)nc21
3. Cc1cc(/C=C/C#N)cc(C)c1N1CC(=O)Nc2cnc(Nc3ccc(C#N)cc3)nc21

Output:
1: 2.3; 2: 6.6; 3: 1.8

Summary for this compound, Cc1cc(/C=C/C#N)cc(C)c1N1CCC(=O)Nc2cnc(Nc3ccc(C#N)cc3)nc21 : solubility is 2.3

====

System: HIV-1 (IIIB strain)
Test: MT-4 antiviral cytopathic effect assay, HIV-1 IIIB
Format: cell-based
Settings: Human immunodeficiency virus 1, HXB2 / IIIB, range over HIV-1 IIIB and HXB2; read-out: EC50 against both wild-type viruses
measured.quantity: EC50

The measured EC50 associated with Cc1cc(C#N)cc(C)c1N1CC(=O)Nc2cnc(Nc3ccc(C#N)cc3)nc21 reads 8.1 to 8.6 nM

====

Test system: HIV-1 HXB2 Y181C variant
Experiment: MT-4 antiviral cytopathic effect assay, HXB2-Y181C
Assay type: cell-based
Settings: Human immunodeficiency virus 1, HXB2, read-out: EC50 Y181C
measured.quantity: EC50 (nM)
Answers are plain numbers, in nM.

As a guide, the following entries are already answered.
Cc1cc(/C=C/C#N)cc(C)c1N1CC(=O)Nc2cnc(Nc3ccc(C#N)cc3)nc21 :: 4.9
Cc1cc(C#N)cc(C)c1Oc1nc(Nc2ccc(C#N)cc2)nc(N)c1Br [ETV, etravirine, reference compound] :: 11.1
Cc1cc(C#N)cc(C)c1-n1c(=O)[nH]c2cnc(Nc3ccc(C#N)cc3)nc21 :: 241
Cc1cc(/C=C/C#N)cc(C)c1-n1c(=O)[nH]c2cnc(Nc3ccc(C#N)cc3)nc21 :: 10.6
Cc1cc(/C=C/C#N)cc(C)c1N1CCC(=O)Nc2cnc(Nc3ccc(C#N)cc3)nc21 :: 18.3

Provide EC50 values for the following items, in order.
1. Cc1cc(C#N)cc(C)c1N1CC(=O)Nc2cnc(Nc3ccc(C#N)cc3)nc21
2. Cc1cc(/C=C/C#N)cc(C)c1Nc1ccnc(Nc2ccc(C#N)cc2)n1 [RPV, rilpivirine, reference compound]
3. Cc1cc(C#N)cc(C)c1N1CCC(=O)Nc2cnc(Nc3ccc(C#N)cc3)nc21

Output:
30.2
3.8
198

====

Tested on: HIV-1 (IIIB strain)
Test: MT-4 antiviral cytopathic effect assay, HIV-1 IIIB
Assay type: cell-based
Conditions: Human immunodeficiency virus 1, MT4, read-out: EC50 MT4, protects 50% of MT-4 cells against HIV-1-induced cell killing; HIV-1 IIIB, WT
measured.quantity: pEC50
Give bare numbers, as −log10 of the molar value.

Memo: Cc1cc(C#N)cc(C)c1Oc1nc(Nc2ccc(C#N)cc2)nc(N)c1Br [ETV, etravirine, reference compound] , reported pEC50: 8.62
